Where do these numbers come from? They come from patent US20150057443A1.

# target_desc: human recombinant DAT (Homo sapiens)
# test_description: DAT radioligand binding assay (scintillation proximity, [3H]WIN-35428)
# condition_context: HEK293 cell membranes expressing human recombinant DAT; [3H]WIN-35428; SPA; read-out: DAT Ki
# Method: Affinity of the compounds for monoamine transporters was determined by in vitro radioligand binding assays using cell membrane preparations derived from HEK293 cell lines stably expressing human recombinant DAT, NET or SERT receptor (Suven Life Sciences, Hyderabad, India). […] A scintillation proximity assay was used to measure receptor binding. […] Plates were incubated for three hours and raw data counts recorded using a liquid scintillation counter (MicroBetaTriLux Counter, Perkin Elmer). […]
reported_metric: Ki

Fill in: Ki of O=C(CN1CCCCC1)C1(c2ccc(Cl)cc2)CCC1 is ___
> 500 nM

* * *

# target_desc: human recombinant SERT (Homo sapiens, UniProt P31645)
# Construct: membranes)
# Sequence (P31645 whole entry): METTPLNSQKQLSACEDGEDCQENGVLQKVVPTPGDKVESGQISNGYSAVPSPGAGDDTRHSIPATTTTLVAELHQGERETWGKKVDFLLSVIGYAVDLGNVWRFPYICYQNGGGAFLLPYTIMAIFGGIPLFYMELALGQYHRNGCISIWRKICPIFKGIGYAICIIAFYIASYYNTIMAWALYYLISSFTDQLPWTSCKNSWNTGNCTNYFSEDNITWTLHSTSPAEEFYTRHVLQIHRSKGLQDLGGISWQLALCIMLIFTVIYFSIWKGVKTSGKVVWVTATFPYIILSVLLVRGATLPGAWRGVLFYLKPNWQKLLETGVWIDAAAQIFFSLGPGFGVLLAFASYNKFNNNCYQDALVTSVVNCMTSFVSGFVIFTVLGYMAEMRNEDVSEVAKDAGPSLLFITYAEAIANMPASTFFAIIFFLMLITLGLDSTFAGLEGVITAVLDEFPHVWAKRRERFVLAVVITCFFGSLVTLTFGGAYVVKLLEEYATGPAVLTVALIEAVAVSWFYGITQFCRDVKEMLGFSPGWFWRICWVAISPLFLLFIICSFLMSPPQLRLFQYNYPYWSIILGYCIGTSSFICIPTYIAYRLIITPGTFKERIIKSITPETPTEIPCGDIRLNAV
# test_description: SERT radioligand binding assay (scintillation proximity, [3H]citalopram)
# condition_context: HEK293 cell membranes expressing human recombinant SERT; [3H]citalopram; SPA; read-out: SERT Ki
pKi: −log10 of the molar value.
reported_metric: pKi

The examples below pair each entry with its known result.
# molecule, reported_metric, result
data = [
    ("CC1(NCC(O)C2(c3ccc(Cl)c(Cl)c3)CCC2)CC1 (stereo not shown) [Compound 34]", "pKi", "6.30 to 7.00"),
    ("CC(C)NCC(O)C1(c2ccc(Cl)c(Cl)c2)CCC1 (stereo not shown) [Compound 19]", "pKi", "6.30 to 7.00"),
    ("OC(CN1CCCCC1)C1(c2ccccc2)CCC1 (stereo not shown) [Compound 5]", "pKi", "< 6.30"),
]

Fill in: pKi of O[C@H](CN1CCCCC1)C1(c2ccc(Cl)c(Cl)c2)CCC1 [Compound 13] is ___
< 6.30

Fill in: pKi of OC(CN1CCCCC1)C1(c2ccc(Cl)c(Cl)c2)CCC1 (stereo not shown) [Compound 7] is ___
< 6.30

Fill in: pKi of OC(CN1CCCCC1)C1(c2cccc(Cl)c2)CCC1 (stereo not shown) [Compound 12] is ___
< 6.30

Fill in: pKi of OC(CNC1CCC1)C1(c2ccc(Cl)c(Cl)c2)CCC1 (stereo not shown) [Compound 36] is ___
6.30 to 7.00

* * *

Entries annotated with measured pKi
# target_desc: human recombinant SERT (Homo sapiens)
# Construct: membranes)
# test_description: SERT radioligand binding assay (scintillation proximity, [3H]citalopram)
# condition_context: HEK293 cell membranes expressing human recombinant SERT; [3H]citalopram; SPA; read-out: SERT Ki
pKi: −log10 of the molar value.

The examples below pair each entry with its known result.
# compound, pKi
records = [
    ("Clc1cccc(C2(CN3CCCCC3)CCC2)c1 [Compound 2]", "< 6.30"),
    ("OC(CN1CCCC(F)C1)C1(c2ccc(Cl)c(Cl)c2)CCC1 (centres unmarked) [Compound 21]", "< 6.30"),
]

Fill in: pKi of O=C(CN1CCCCC1)C1(c2ccccc2)CCC1 [Compound 68] is ___
< 6.30

Fill in: pKi of CCCN(CC)CC(O)C1(c2ccc(Cl)c(Cl)c2)CCC1 (centres unmarked) [Compound 48] is ___
6.30 to 7.00

Fill in: pKi of OC(CN1CCC(F)CC1)C1(c2ccc(Cl)c(Cl)c2)CCC1 (centres unmarked) [Compound 23] is ___
< 6.30

* * *

Entries annotated with measured pKi
# target_desc: human recombinant DAT (Homo sapiens, UniProt Q01959)
# Sequence (Q01959 whole entry): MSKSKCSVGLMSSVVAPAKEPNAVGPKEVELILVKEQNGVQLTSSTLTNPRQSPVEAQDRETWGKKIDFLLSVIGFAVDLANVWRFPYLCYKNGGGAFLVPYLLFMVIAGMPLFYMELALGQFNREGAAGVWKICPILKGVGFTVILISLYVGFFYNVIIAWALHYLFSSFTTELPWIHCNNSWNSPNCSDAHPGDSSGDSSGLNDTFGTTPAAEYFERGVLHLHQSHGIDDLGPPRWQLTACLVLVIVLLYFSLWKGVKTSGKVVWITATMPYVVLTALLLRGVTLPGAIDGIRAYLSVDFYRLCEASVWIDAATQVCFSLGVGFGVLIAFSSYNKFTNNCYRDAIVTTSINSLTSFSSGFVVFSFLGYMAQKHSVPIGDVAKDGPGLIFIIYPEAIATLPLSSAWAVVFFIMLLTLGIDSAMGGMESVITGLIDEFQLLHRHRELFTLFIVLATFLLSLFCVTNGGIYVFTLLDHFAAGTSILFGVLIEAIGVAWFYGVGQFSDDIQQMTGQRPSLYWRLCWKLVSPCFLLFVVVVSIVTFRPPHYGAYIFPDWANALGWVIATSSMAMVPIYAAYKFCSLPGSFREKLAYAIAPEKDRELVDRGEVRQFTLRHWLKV
# test_description: DAT radioligand binding assay (scintillation proximity, [3H]WIN-35428)
pKi: −log10 of the molar value.

The examples below pair each entry with its known result.
# compound, result
records = [
    ("O[C@H](CN1CCCCC1)C1(c2ccc(Cl)c(Cl)c2)CCC1", "7.00 to 7.96"),
    ("CCCN(CC)CC(O)C1(c2ccc(Cl)c(Cl)c2)CCC1 (centres unmarked)", "7.00 to 7.96"),
    ("CC(O)(CN1CCCCC1)C1(c2ccc(Cl)c(Cl)c2)CCC1 (centres unmarked)", "7.00 to 7.96"),
    ("O=C(CN1CCCCC1)C1(c2cccc(Cl)c2)CCC1", "< 6.30"),
]

Lab note: need pKi with human recombinant DAT (Homo sapiens, UniProt Q01959) for entry COC1CCCN(CC(O)C2(c3ccc(Cl)c(Cl)c3)CCC2)C1 (centres unmarked) , please look it up.
> 8.00

* * *

# target_desc: human recombinant DAT (Homo sapiens)
# test_description: DAT radioligand binding assay (scintillation proximity, [3H]WIN-35428)
reported_metric: Ki

The examples below pair each entry with its known result.
# compound, result
data = [
    ("OC(CN1CCCCC1)C1(c2cccc(Cl)c2)CCC1 (stereo not drawn)", "> 500 nM"),
    ("OC(CN1CCOCC1)C1(c2ccc(Cl)c(Cl)c2)CCC1 (stereo not drawn)", "11 to 100 nM"),
    ("OC(CNC1CCC1)C1(c2ccc(Cl)c(Cl)c2)CCC1 (stereo not drawn)", "11 to 100 nM"),
    ("O[C@@H](CN1CCCCC1)C1(c2ccc(Cl)c(Cl)c2)CCC1", "11 to 100 nM"),
    ("Clc1ccc(C2(CN3CCCCC3)CCC2)cc1", "101 to 500 nM"),
]

Lab note: need Ki with human recombinant DAT (Homo sapiens) for entry N#CC1CCCN(CC(O)C2(c3ccc(Cl)c(Cl)c3)CCC2)C1 (stereo not drawn) , please look it up.
< 10 nM

Lab note: need Ki with human recombinant DAT (Homo sapiens) for entry OC(CN1CCCC(F)(F)C1)C1(c2ccc(Cl)c(Cl)c2)CCC1 (stereo not drawn) , please look it up.
< 10 nM

* * *

# target_desc: human recombinant DAT (Homo sapiens)
# test_description: DAT radioligand binding assay (scintillation proximity, [3H]WIN-35428)
pKi: −log10 of the molar value.
Entries annotated with measured pKi

The examples below pair each entry with its known result.
# compound, pKi
measured = [
    ("CC(C)NCC(O)C1(c2ccc(Cl)c(Cl)c2)CCC1 (centres unmarked)", "7.00 to 7.96"),
    ("OC(CN1CC2CCC1C2)C1(c2ccc(Cl)c(Cl)c2)CCC1 (centres unmarked)", "7.00 to 7.96"),
    ("CC1(C)COCCN1CC(O)C1(c2ccc(Cl)c(Cl)c2)CCC1 (centres unmarked)", "> 8.00"),
    ("OC(CN1CCCCC1)C1(c2ccc(Cl)c(Cl)c2)CCCC1 (centres unmarked)", "7.00 to 7.96"),
    ("CCN(CC(O)C1(c2ccc(Cl)c(Cl)c2)CCC1)C(C)C (centres unmarked)", "7.00 to 7.96"),
]

Lab note: need pKi with human recombinant DAT (Homo sapiens) for entry CC(CF)NCC(O)C1(c2ccc(Cl)c(Cl)c2)CCC1 (centres unmarked) , please look it up.
7.00 to 7.96

Lab note: need pKi with human recombinant DAT (Homo sapiens) for entry COC(CN1CCCCC1)C1(c2ccc(Cl)c(Cl)c2)CCC1 (centres unmarked) , please look it up.
< 6.30

Lab note: need pKi with human recombinant DAT (Homo sapiens) for entry OC(CN1CCCC(F)C1)C1(c2ccc(Cl)c(Cl)c2)CCC1 (centres unmarked) , please look it up.
> 8.00

Lab note: need pKi with human recombinant DAT (Homo sapiens) for entry c1ccc(C2(CN3CCCCC3)CCC2)cc1 , please look it up.
< 6.30

Lab note: need pKi with human recombinant DAT (Homo sapiens) for entry OC(CNC1CC1)C1(c2ccc(Cl)c(Cl)c2)CCC1 (centres unmarked) , please look it up.
7.00 to 7.96

Lab note: need pKi with human recombinant DAT (Homo sapiens) for entry OC(CN1CCCCC1)C1(c2ccc(Cl)cc2)CCC1 (centres unmarked) , please look it up.
< 6.30

Lab note: need pKi with human recombinant DAT (Homo sapiens) for entry OC(CN1CC2CC1CO2)C1(c2ccc(Cl)c(Cl)c2)CCC1 (centres unmarked) , please look it up.
7.00 to 7.96

Lab note: need pKi with human recombinant DAT (Homo sapiens) for entry Clc1cccc(C2(CN3CCCCC3)CCC2)c1 , please look it up.
< 6.30

Lab note: need pKi with human recombinant DAT (Homo sapiens) for entry OC(CN1CCC(F)(F)CC1)C1(c2ccc(Cl)c(Cl)c2)CCC1 (centres unmarked) , please look it up.
> 8.00

Lab note: need pKi with human recombinant DAT (Homo sapiens) for entry OC(CN1CCCCCC1)C1(c2ccc(Cl)c(Cl)c2)CCC1 (centres unmarked) , please look it up.
7.00 to 7.96

Lab note: need pKi with human recombinant DAT (Homo sapiens) for entry CC1(NCC(O)C2(c3ccc(Cl)c(Cl)c3)CCC2)CC1 (centres unmarked) , please look it up.
7.00 to 7.96
